Species on record: Rattus norvegicus
Test: Percent change in total cholesterol in cholic acid (0.5%)-cholesterol (1.5%)-peanut oil (5.5%)-fed rats
Format: functional
experimental_endpoint: Change TC (%)
Your answer should be a plain number; it is taken to be in %.

Here are 5 compounds together with their reported answers.
| compound | Change TC / % |
| --- | --- |
| CCCCCCCCCCCCCCCn1nnc(C(NC(=O)c2c(C)cccc2C)c2ccccc2)n1 (centres undefined) | -14 |
| CCCCCCCCCCCCn1nnc(C(NC(=O)c2ccc(C)cc2)c2ccccc2)n1 (centres undefined) | -4 |
| CCCCCCCCCCCCn1nnc(C(NC(=O)c2cccc(Cl)c2)c2ccccc2)n1 (centres undefined) | 3 |
| CCCCCCCCCCCCn1nnc(C(NC(=O)c2cccc([N+](=O)[O-])c2)c2ccccc2)n1 (centres undefined) | -33 |
| CCCCCCCCCCCCn1nnnc1C(NC(=O)c1c(Cl)cccc1Cl)c1ccccc1 (centres undefined) | -31 |

Looking for the measured Change TC of CCCCCCCCCCCCn1nnc(C(NC(=O)c2ccc(C(F)(F)F)cc2)c2ccccc2)n1 (centres undefined) , can you help?
-10

Looking for the measured Change TC of CCCCCCCCCCCCn1nnc(C(NC(=O)c2c(Cl)cccc2Cl)c2ccccc2)n1 (centres undefined) , can you help?
-26

Looking for the measured Change TC of CCCCCCCCCCCCn1nnc(C(NC(=O)c2ccccc2[N+](=O)[O-])c2ccccc2)n1 (centres undefined) , can you help?
-27

Looking for the measured Change TC of CCCCCCCCCCC(C)(C)C(=O)Nc1c(OC)cc(OC)cc1OC , can you help?
-73
